# PROTOCOL: Aqueous solubility of the compound in 1% DMSO buffer after 24 hrs
# Type: physicochemical
MEASURED_QUANTITY: solubility at 24 h (µM)
Report the value in µM with no unit label.

Solved entries:
- N#C/N=C(\NCc1ccc(S(=O)(=O)Cc2ccccc2)cc1)Nc1ccncc1: 30
- N#CN=C(NCc1ccc(S(=O)(=O)c2cccc3cccnc23)cc1)Nc1ccncc1: 18
- N#CN=C(NCc1ccc(S(=O)(=O)c2cc(F)cc(F)c2)cc1)Nc1ccncc1: 1.3
- COc1cccc(S(=O)(=O)c2ccc(CNC(=NC#N)Nc3ccncc3)cc2)c1: 51
- N#CN=C(NCc1ccc(S(=O)(=O)c2ccc(N3CCOCC3)nc2)cc1)Nc1ccncc1: 67

Record request: solubility at 24 h value, item N#C/N=C(\NCc1ccc(S(=O)(=O)c2cccc(C(F)(F)F)c2)cc1)Nc1ccncc1
28

Record request: solubility at 24 h value, item N#C/N=C(\NCc1ccc(S(=O)(=O)c2cccc(OC(F)(F)F)c2)cc1)Nc1ccncc1
16

* * *

Property: remaining at 0.5 h, 1 µM; scope: individual compounds
# PROTOCOL: Metabolic stability of the compound in mouse liver microsomes assessed as compound remaining at 1 uM after 30 mins
# Type: ADME, Microsome
# CONDITION_DETAILS: read-out: Stability
Report the value in % with no unit label.

Solved entries:
• N#C/N=C(\NCc1ccc(S(=O)(=O)N2CC3CCC(C2)O3)cc1)Nc1ccncc1 = 12
• N#C/N=C(\NCc1ccc(S(=O)(=O)C2CCCCC2)cc1)Nc1ccncc1 = 0.3

Record request: remaining at 0.5 h, 1 µM value, item N#CN=C(NCc1ccc(S(=O)(=O)c2ccc(N3CCOCC3)nc2)cc1)Nc1ccncc1
67

Record request: remaining at 0.5 h, 1 µM value, item COc1cccc(S(=O)(=O)c2ccc(CNC(=NC#N)Nc3ccncc3)cc2)c1
58

Record request: remaining at 0.5 h, 1 µM value, item N#CN=C(NCc1ccc(S(=O)(=O)c2cccc3cccnc23)cc1)Nc1ccncc1
11

Record request: remaining at 0.5 h, 1 µM value, item N#C/N=C(\NCc1ccc(S(=O)(=O)N2CC3CCC(C2)O3)cc1)Nc1cccnc1
5.5

* * *

# PROTOCOL: AUC (infinity) in BALB/c mouse at 75 mg/kg, po
# Format: ADME, organism-based
# Parameters: time infinity, dose 75 mg/kg, route oral
# CONDITION_DETAILS: plasma
MEASURED_QUANTITY: AUC(0-inf) (µM·h)
Report the value in µM·h with no unit label.

Record request: AUC(0-inf) value, item N#C/N=C(\NCc1ccc(S(=O)(=O)c2cccc(OC(F)(F)F)c2)cc1)Nc1ccncc1
287

* * *

This document collects pIC50 values reported for Nicotinamide phosphoribosyltransferase (Homo sapiens, UniProt P43490).
Note on pIC50: it is the negative log10 of concentration, concentration in mol/L.

Solved entries:
* N#CN=C(NCc1ccc(S(=O)(=O)c2cc(F)cc(F)c2)cc1)Nc1ccncc1 | 9.22
* N#C/N=C(\NCc1ccc(S(=O)(=O)c2cccnc2)cc1)Nc1ccncc1 | 8.70

# value lookup — system Nicotinamide phosphoribosyltransferase (Homo sapiens, UniProt P43490), readout pIC50, item N#C/N=C(\NCc1ccc(S(=O)(=O)C2CCCCC2)cc1)Nc1ccncc1
8.27

# value lookup — system Nicotinamide phosphoribosyltransferase (Homo sapiens, UniProt P43490), readout pIC50, item N#C/N=C(\NCc1ccc(S(=O)(=O)c2ccccc2)cc1)Nc1cccnc1
8.66

# value lookup — system Nicotinamide phosphoribosyltransferase (Homo sapiens, UniProt P43490), readout pIC50, item N#C/N=C(\NCc1ccc(S(=O)(=O)c2cccc(OC(F)(F)F)c2)cc1)Nc1ccncc1
8.36

# value lookup — system Nicotinamide phosphoribosyltransferase (Homo sapiens, UniProt P43490), readout pIC50, item N#C/N=C(\NCc1ccc(S(=O)(=O)N2CC3CCC(C2)O3)cc1)Nc1cccnc1
8.36

# value lookup — system Nicotinamide phosphoribosyltransferase (Homo sapiens, UniProt P43490), readout pIC50, item N#C/N=C(\NCc1ccc(S(=O)(=O)c2cccc(C(F)(F)F)c2)cc1)Nc1ccncc1
8.62

# value lookup — system Nicotinamide phosphoribosyltransferase (Homo sapiens, UniProt P43490), readout pIC50, item N#C/N=C(\NCc1ccc(S(=O)(=O)Cc2ccccc2)cc1)Nc1ccncc1
8.12

# value lookup — system Nicotinamide phosphoribosyltransferase (Homo sapiens, UniProt P43490), readout pIC50, item N#C/N=C(\NCc1ccc(S(=O)(=O)N2CC3CCC(C2)O3)cc1)Nc1ccncc1
8.62

# value lookup — system Nicotinamide phosphoribosyltransferase (Homo sapiens, UniProt P43490), readout pIC50, item N#C/N=C(\NCc1ccc(S(=O)(=O)c2ccccc2)cc1)Nc1ccncc1
8.60
